# Subject Of Test: UniProt P34972
# Measurement Description: Inverse agonist activity at human recombinant CB2 receptor expressed CHO cells membrane by [35S]GTPgamma binding assay relative to 2-((1R,2R,5R)-5-hydroxy-2-(3-hydroxypropyl)cyclohexyl)-5-(2-methyloctan-2-yl)phenol
# Assay type: functional, cell membranes
Each entry below carries its recorded Emax.

Below are worked cases with known answers.
{"columns": ["Structure", "Property Label", "Measured"],
 "data": [
  ["CCCCCN1C(=O)/C(=N\\NC(=O)C(C)(C)O)c2ccc(OC)cc21", "Emax", "-99%"],
  ["CCCCCN1C(=O)/C(=N\\NC(=O)CC(C)C)c2ccc(OC)cc21", "Emax", "-78%"],
  ["COc1ccc2c(c1)N(Cc1ccccc1)C(=O)/C2=N\\NC(=O)c1ccccc1", "Emax", "-96%"]
]}

Exercise: If you can, please state the reported Emax value of CCCCCN1C(=O)/C(=N\NC(=O)C(C)(C)C)c2ccc(OC)cc21 .
Solution: -78%

Exercise: Also need COCCN1C(=O)/C(=N\NC(=O)c2ccccc2)c2ccc(OC)cc21 , thanks.
Solution: -60%

====

Catalogue of compounds with associated pEC50
# Subject Of Test: Cannabinoid receptor 2 (Homo sapiens, UniProt P34972)
# Sequence (P34972 whole entry): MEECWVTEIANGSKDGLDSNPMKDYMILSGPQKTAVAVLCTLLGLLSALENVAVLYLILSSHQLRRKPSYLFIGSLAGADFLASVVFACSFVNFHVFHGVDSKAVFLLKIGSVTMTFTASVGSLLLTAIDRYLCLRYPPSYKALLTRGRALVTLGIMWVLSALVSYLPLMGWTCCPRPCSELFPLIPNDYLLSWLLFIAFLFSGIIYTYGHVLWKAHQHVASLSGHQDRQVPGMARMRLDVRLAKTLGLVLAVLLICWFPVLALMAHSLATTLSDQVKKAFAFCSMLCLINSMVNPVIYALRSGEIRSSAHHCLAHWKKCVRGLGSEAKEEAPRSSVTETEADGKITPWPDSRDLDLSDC
# Measurement Description: Inverse agonist activity at human recombinant CB2 receptor expressed CHO cells membrane by [35S]GTPgamma binding assay
# Assay type: functional, cell membranes
The read-out pEC50 is expressed as -log10 of concentration in moles per litre.

These solved cases illustrate the format of a correct answer.
{"columns": ["Structure", "pEC50"],
 "data": [
  ["CCCCCN1C(=O)/C(=N\\NC(=O)C2CCCCC2)c2ccc(OC)cc21", 7.54],
  ["CCCCCN1C(=O)/C(=N\\NC(=O)OC(C)(C)C)c2ccc(OC)cc21", 7.80],
  ["CCCCCN1C(=O)/C(=N\\NC(=O)CN2CCOCC2)c2ccc(OC)cc21", 7.88]
]}

Proceed to the following item.
Exercise: Recorded pEC50 of CCCCCCN1C(=O)/C(=N\NC(=O)c2ccccc2)c2ccc(OC)cc21 , please.
Solution: 7.05

====

# Subject Of Test: Cannabinoid receptor 2 (Homo sapiens)
# Measurement Description: Inverse agonist activity at human recombinant CB2 receptor expressed CHO cells membrane by [35S]GTPgamma binding assay relative to 2-((1R,2R,5R)-5-hydroxy-2-(3-hydroxypropyl)cyclohexyl)-5-(2-methyloctan-2-yl)phenol
# Format: functional, cell membranes
Property Label: Emax (%)
Express your answer in %, writing the number without its unit.

These solved cases illustrate the format of a correct answer.
{"columns": ["Structure", "Subject Of Test", "Unit Info", "Emax"],
 "data": [
  ["CCCCCN1C(=O)/C(=N\\NC(=O)CC2CCCCC2)c2ccc(OC)cc21", "Cannabinoid receptor 2 (Homo sapiens)", "%", -88],
  ["CCCCCCN1C(=O)/C(=N\\NC(=O)c2ccccc2)c2ccc(OC)cc21", "Cannabinoid receptor 2 (Homo sapiens)", "%", -92],
  ["COc1ccc2c(c1)N(CC1CCCCC1)C(=O)/C2=N\\NC(=O)c1ccccc1", "Cannabinoid receptor 2 (Homo sapiens)", "%", -82]
]}

Exercise: Query the reported Emax for Cannabinoid receptor 2 (Homo sapiens); item: COc1ccc2c(c1)N(CCC1CCCCC1)C(=O)/C2=N\NC(=O)c1ccccc1
Solution: -104

Exercise: What do we get for CCCCCN1C(=O)/C(=N\NC(=O)CN2CCOCC2)c2ccc(OC)cc21 ?
Solution: -80

Exercise: How about CCCCCN1C(=O)/C(=N\NC(=O)OC(C)(C)C)c2ccc(OC)cc21 ?
Solution: -97

Exercise: Entry CCCCCN1C(=O)/C(=N\NC(=O)c2ccccc2)c2ccc(OC)cc21 please
Solution: -108

Exercise: How about this molecule: CCCCN1C(=O)/C(=N\NC(=O)c2ccccc2)c2ccc(OC)cc21
Solution: -95

Exercise: Quick one: COc1ccc2c(c1)N(CC1CCCCC1)C(=O)/C2=N\NC(=O)C1CCCCC1
Solution: -69

Exercise: Same lookup for CCCCCN1C(=O)/C(=N\NC(=O)C2CCCCC2)c2ccc(OC)cc21 , please.
Solution: -105

Where these numbers come from: ChEMBL document CHEMBL1139382
